Test system: S. cerevisiae Burl-1 ts mutant growth, BacTiter-Glo, 38.5C 24 h
experiment.notes: restored growth of temperature-sensitive Burl-1 yeast – whole organism, S. cerevisiae, Burl-1 ts mutant, luminescence, counter-screen for SUMOylation pathway inhibitor project, dose response (AID 463199)
Calls of active or inactive are those of the source.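 The calls were made as follows: active = AC50, the dose giving half-maximal effect, exceeds a fixed cutoff for a compound that rescues yeast growth under heat; inactive = the rest, inconclusive results apart.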
Exercise: for every item that follows, state its recorded AC50.

Recall and state the measured AC50 for "O=C(CCC(=O)OCC(=O)c1ccc(Br)cc1)Nc1cccc2cccnc12" .
> 42 µM (inactive)

Recall and state the measured AC50 for "O=C(OCC#CCSc1nnc(-c2ccccc2)o1)c1cc2ccccc2o1" .
> 42 µM (inactive)

Recall and state the measured AC50 for "C[C@H]1O[C@H]1P(=O)(O)O" .
> 42 µM (inactive)

Recall and state the measured AC50 for "Cc1cc(=O)n2[nH]c(-c3ccc(F)cc3)nc2n1" .
> 42 µM (inactive)

Recall and state the measured AC50 for "CCOC(=O)N1CCN(C(=O)c2ccccc2-c2ccccc2)CC1" .
> 42 µM (inactive)

Recall and state the measured AC50 for "CCc1ccc(-c2nc(SCC(=O)N3CCOCC3)n[nH]2)cc1" .
> 42 µM (inactive)

Recall and state the measured AC50 for C=CCOc1ccccc1CN1CCCC(CCC(=O)N(C)CCc2ccccn2)C1 (stereo unspecified) .
> 21 µM (inactive)

Recall and state the measured AC50 for CCCOc1ccc(N2C(=O)CC(N3CCC(C(=O)OCC)CC3)C2=O)cc1 (stereo unspecified) .
> 42 µM (inactive)

Recall and state the measured AC50 for "COc1ccc(NS(=O)(=O)c2ccc(OCC(=O)N3CCOCC3)cc2)cc1Cl" .
> 42 µM (inactive)

Recall and state the measured AC50 for "CC(=O)c1ccc(Nc2cc(C)nc3ccccc23)cc1" .
> 42 µM (inactive)

Recall and state the measured AC50 for "CS(=O)(=O)N(CC(=O)NCCSCc1ccccc1)c1ccc2c(c1)OCO2" .
> 42 µM (inactive)
